# maps each entry to its GI50
- Tested on: SK-OV-3
- procedure-text: NCI tumour cell line growth inhibition, 48 h
Active and inactive are the calls of the source. Rule as the data show it: active = GI50 up to about 1.1 µM and inactive = higher.

Illustrative cases are given below, each with its answer.
# compound, target-or-test-system, test-value
data = [
    ("Nc1ccccc1[S+]([O-])c1ccccc1 (stereo not given)", "SK-OV-3", "> 100 µM (inactive)"),
    ("CC(=O)O[C@H]1[C@@H](OC2CCCC2(c2ccccc2)c2ccccc2)O[N+]([O-])=C[C@@H]1c1ccccc1 (stereo not given in full)", "SK-OV-3", "14.5 µM (inactive)"),
    ("O=C(/C=C\\c1ccccc1-c1ccccc1)c1ccccc1", "SK-OV-3", "> 100 µM (inactive)"),
    ("CC(=O)OCC1OC(n2cc(F)c(=O)[nH]c2=O)C(OC(C)=O)C1OC(C)=O (stereo not given)", "SK-OV-3", "> 73.5 µM (inactive)"),
]

Ask: For Nc1ccccc1NC(=O)c1ccc(CNC(=O)OCc2cccnc2)cc1 [ENTINOSTAT] , what is its reported GI50?
Result: 4.9 µM (inactive)

----------
- Test system: MDA-MB-435
- procedure-text: NCI tumour cell line growth inhibition, 48 h
Active and inactive are the calls of the source. No stated cut-off is given here; in the data, active = GI50 up to about 1.1 µM and inactive = higher.
property-measured: GI50

Illustrative cases are given below, each with its answer.
# compound, target-or-test-system, test-value
records = [
    ("Cc1ccc(-c2cs/c(=N\\c3ccccc3)n2NC(=O)c2ccncc2)cc1", "MDA-MB-435", "29.4 µM (inactive)"),
    ("O=C(O)CSc1nnc(CCCCCCCCc2nnc(SCC(=O)O)o2)o1", "MDA-MB-435", "> 100 µM (inactive)"),
    ("C=C1C(=O)O[C@@]23C1CC[C@@H](C)C2CC[C@@]1(C)OC31 (stereo partly specified)", "MDA-MB-435", "4.25 µM (inactive)"),
    ("C=C1C(=O)O[C@H]2C/C(C=O)=C\\[C@H]3O[C@H]3/C(COC(=O)C(C)C)=C/CC12 (stereo partly specified)", "MDA-MB-435", "4.25 µM (inactive)"),
    ("CCOC(=O)Cn1nnc2cc(Nc3c(C)[n+]([O-])c4cc(F)c(OCC)cc4[n+]3[O-])ccc21", "MDA-MB-435", "> 100 µM (inactive)"),
    ("CCSC1=N/C(=C/c2ccccc2O)C(=O)N1", "MDA-MB-435", "> 100 µM (inactive)"),
]

Ask: For CCCCCCCCCCCCCCCCCC(=O)OCC(COC1OC(CS(=O)(=O)O)C(O)C(O)C1O)OC(=O)CCCCCCCCCCCCCCCCC (stereo unspecified) , what is its reported GI50?
Result: > 100 µM (inactive)

Ask: Further, for O=C1CCC(NC(=O)c2ccccc2)C(=O)N1 (stereo unspecified) ?
Result: > 100 µM (inactive)

Ask: Further, for CCCCCCCCCCCCCCCCOCC(Cl)CP(=O)(O)OP(=O)(O)OCC1OC(n2cnc3c(N)ncnc32)C(O)C1O (stereo unspecified) ?
Result: > 100 µM (inactive)

Ask: Further, for O=c1[nH]c(NCc2cccnc2)nc2[nH]cnc12 ?
Result: > 100 µM (inactive)

----------
# maps each entry to its GI50
- Test system: MOLT-4
- procedure-text: NCI tumour cell line growth inhibition, 48 h
Calls of active or inactive are those of the source. Rule as the data show it: active = GI50 up to about 1.1 µM and inactive = higher.

Illustrative cases are given below, each with its answer.
# compound, test-value
rows = [
    ("O=c1[nH]c(NCc2cccnc2)nc2[nH]cnc12", "> 100 µM (inactive)"),
    ("N#CC1=C(N)N2C(=O)/C(=C/c3ccccc3O)N=C2S1", "18.5 µM (inactive)"),
    ("Cc1cc(N(CCC#N)CCC#N)ccc1C(/N=N/c1ccc(Cl)cc1)=N\\NC(=O)c1ccccc1", "40 µM (inactive)"),
    ("Nc1nc(N)c2ncn(CC(CO)CC(c3ccccc3)P(=O)(O)O)c2n1 (stereo unspecified)", "> 100 µM (inactive)"),
    ("O=P(O)(NCCCl)NCCCl [PALIFOSFAMIDE]", "60.3 µM (inactive)"),
    ("CCCCC(C)/C=C/C(O)=C1\\C(=O)O/C(=C\\C(=O)O)C1=O (stereo unspecified)", "> 100 µM (inactive)"),
]

Ask: For O=C1/C(=C/c2ccccc2)CN(C(=O)Oc2ccccc2)C/C1=C\c1ccccc1 , what is its reported GI50?
Result: 9.29 µM (inactive)

Ask: Further, for COc1cc2c(NCCCCCCO[N+](=O)[O-])ncnc2c(OC)c1OC ?
Result: 16.5 µM (inactive)

Ask: Further, for N#Cc1c(-c2ccc(Cl)cc2)cc(-c2nc3ccccc3[nH]2)nc1N ?
Result: 2.92 µM (inactive)

Ask: Further, for COC(=O)C1C(C(=O)OC)N(Cc2ccccc2)C(=O)N1Cc1ccccc1 (stereo unspecified) ?
Result: 22.8 µM (inactive)

Ask: Further, for C#CCOC(=O)C(N)CS (stereo unspecified) ?
Result: > 100 µM (inactive)

Ask: Further, for CCCCCCCC1C(C)c2c([nH]c3ccccc23)C2C(=O)N(c3ccc(OC)cc3)C(=O)C21 (stereo unspecified) ?
Result: 3.2 µM (inactive)

Ask: Further, for C[C@@H]1C[C@H](O)[C@]2(O)O[C@@H]3C[C@@]4(C=O)[C@@H](CC[C@@H]5[C@@H]4CC[C@]4(C)[C@@H](C6=CC(=O)OC6)CC[C@]54O)C[C@H]3O[C@@H]2O1 ?
Result: 0.0163 µM (active)

Ask: Further, for c1csc(-c2sc(-c3ccsc3)cc2Cc2ccsc2)c1 ?
Result: > 10 µM (inactive)
